Target: RET-G810C (Homo sapiens, UniProt P07949, G810C)
Sequence (P07949 29-1114 G810C): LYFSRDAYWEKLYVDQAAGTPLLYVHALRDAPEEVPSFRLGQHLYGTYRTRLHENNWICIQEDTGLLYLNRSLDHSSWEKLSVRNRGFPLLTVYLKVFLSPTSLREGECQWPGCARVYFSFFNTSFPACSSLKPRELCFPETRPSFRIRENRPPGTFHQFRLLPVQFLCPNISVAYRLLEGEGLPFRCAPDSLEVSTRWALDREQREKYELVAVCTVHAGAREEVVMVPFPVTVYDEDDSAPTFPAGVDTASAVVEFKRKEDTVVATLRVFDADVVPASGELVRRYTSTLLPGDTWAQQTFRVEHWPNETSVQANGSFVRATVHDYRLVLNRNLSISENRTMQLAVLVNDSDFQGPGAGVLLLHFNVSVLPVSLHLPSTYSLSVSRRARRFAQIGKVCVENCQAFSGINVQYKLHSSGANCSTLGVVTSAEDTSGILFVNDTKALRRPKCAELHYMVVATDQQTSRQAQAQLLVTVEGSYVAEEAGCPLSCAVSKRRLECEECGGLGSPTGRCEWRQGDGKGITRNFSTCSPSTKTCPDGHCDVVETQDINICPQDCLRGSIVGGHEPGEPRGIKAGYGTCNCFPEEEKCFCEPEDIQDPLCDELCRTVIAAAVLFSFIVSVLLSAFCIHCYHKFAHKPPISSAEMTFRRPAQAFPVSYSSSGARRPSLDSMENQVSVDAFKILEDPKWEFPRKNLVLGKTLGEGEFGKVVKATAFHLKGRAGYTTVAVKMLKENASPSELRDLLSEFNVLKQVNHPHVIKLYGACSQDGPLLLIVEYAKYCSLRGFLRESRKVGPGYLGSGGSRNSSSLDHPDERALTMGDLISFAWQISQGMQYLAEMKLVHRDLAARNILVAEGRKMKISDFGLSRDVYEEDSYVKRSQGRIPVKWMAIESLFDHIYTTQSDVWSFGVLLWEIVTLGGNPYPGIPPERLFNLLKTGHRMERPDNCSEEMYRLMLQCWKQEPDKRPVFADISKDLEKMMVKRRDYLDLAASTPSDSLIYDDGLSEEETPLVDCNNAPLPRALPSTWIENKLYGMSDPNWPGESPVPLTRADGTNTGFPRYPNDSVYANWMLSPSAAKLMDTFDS
Assay: RET inhibition experiment, HTRF KinEASE-TK kit, mutant RET-G810C enzyme
Format: biochemical
Conditions: Table 7, comparison with BLU-667 and LOXO-292
assay-metric: IC50 (nM)
Quick note: give the figure in nM, leave out the unit.

Value lookup for IC50; key = Cc1cc(Nc2cc(C)[nH]n2)nc(-c2ccc(N3CC4CC(C3)N4Cc3ccc(-n4cc(F)cn4)nc3)nc2)n1 [Compound 1-A] 53.2

###

Tested on: Ba/F3 KIF5B-RET^V804L
Assay: Proliferation of RET mutant cells (Cell Titer Glo)
Type: cell-based
Details: Mus musculus, BaF3, 72 h; Ba/F3 KIFSB-RET^V804L, 3 days; read-out: Inhibition IC50 (nM) of the compounds on the proliferation of the cell
Method: Ba/F3 cells (Ba/F3 KIF5B-RET^V804E, Ba/F3 KIF5B-RET^V804L, Ba/F3 KIF5B-RET^V804M) in logarithmic phase were respectively collected and inoculated into 96-well plates, with 1000 cells/95 µl/well. […] In addition, negative control wells (without the test compound) and blank control wells (without cells) were set. […]
// values below are reported IC50

Would you please look over these solved cases?
{"columns": ["compound", "target-or-test-system", "IC50"],
 "data": [
  ["Cc1cc(Nc2cc(C)[nH]n2)nc(-c2ccc(N3CC4CC(C3)N4Cc3ccc(-n4cc(F)cn4)nc3)nc2)n1", "Ba/F3 KIF5B-RET^V804L", "66.6 nM"],
  ["COc1ccc(CN2C3CC2CN(c2ccc(-c4cc(OCC(C)(C)O)cn5ncc(C#N)c45)cn2)C3)cn1 [LOXO-292, reference compound]", "Ba/F3 KIF5B-RET^V804L", "1330 nM"]
]}

Then this compound:
Value lookup for IC50; key = CO[C@]1(C(=O)N[C@@H](C)c2ccc(-n3cc(F)cn3)nc2)CC[C@H](c2nc(C)cc(Nc3cc(C)[nH]n3)n2)CC1 [BLU-667, reference compound] 87.1 nM
